# System: MS2 coat protein
# protocol-notes: apparent KD of MS2 coat protein; designed switch direction (-1 OFF switch, 1 ON switch): -1; higher = weaker reporter binding
# experimental-conditions: input ligand: none
Is apparent KD of MS2 coat protein at least 0.03 µM? Then Met. If not, Not met.

Use these answered entries as a reference point.
* GUGCGUGGCUAGGAUAUUGAGGAAUUUAGUCAGCGAGAAGGAGCCACAUGAGGAUCACCCAUGUGGUGAAGCUC [salish99_ex6_r4_001] (Eterna round: R97, puzzle: Exclusion 6) | Not met
* GACUUGUCAGGAUAUCUUACAUUAACAUCGUAGUUACCGUUGGAGAAGGGACAUGAGGAUCACCCAUGUUUGGC [tap-tap-tappy25] (Eterna round: R97, puzzle: Exclusion 4) | Not met
* GGGAUGUCAGGAUAUGAUUAGCACGGCGGUAGCCGCGUUACUUAGAAGGGACAUGAGGAUCACCCAUGUACCGA [EX4 B.6] (Eterna round: R97, puzzle: Exclusion 4) | Not met
* GUGGCACAUGAGGAUCACCCAUGUUAGGAUAUGCUCAAAACGCCCUAGGGUAAGCUGUGUAGAAGGAGCAGGAC [Eternabot (L1) Solution 52] (Eterna round: R97, puzzle: Exclusion 1) | Met

Could you now consider this next sequence?
Data request: Is it the case that UCCGAACAUGAGGAUCACCCAUGUCAGGAUAUAUUAAAGAAAGCCCGCGAAUGUGGGUAUAGAAGGGACAUGAA [Zaatinxe] (Eterna round: R97, puzzle: Exclusion 1) has apparent KD of MS2 coat protein reaching or exceeding 0.03 µM?
Data returned: Not met

* * *

# Tested on: MS2 coat protein
# protocol-notes: apparent KD of MS2 coat protein; designed switch direction (-1 OFF switch, 1 ON switch): -1; higher = weaker reporter binding
# experimental-conditions: input ligand: FMN 200 uM
# apparent KD of MS2 coat protein >= 200 nM gives true, anything below gives false

• GGACAUUCGGUAAGGAUAUUGACCCAACCUAGGAUCAAGAAGGUACAUGAGGAUCACCCAUGUCAGAUCCGUCA [Eternabot (Original) Solution 34] (Eterna round: R97, puzzle: Brourd's mod of Exclusion 4) = false
• UGCACCUCAGGAUAUACUAGGUCCAGUAUGGCGAAAGCCGCACAUGAGGAUCACCCAUGUAGAAGGGAGGUGCA [Eternabot (L1) Solution 61] (Eterna round: R97, puzzle: Exclusion 2) = false
• UGCUACGGAGGAUAUACAUGAGGAUCACCCAUGUGAUAGAUUAUGCCGAGAGGCUAGUGUAGAAGGCCGUAGCU [jl-ex3-4.14 jl mod] (Eterna round: R97, puzzle: Exclusion 3) = true
• AAAUUAACUUAGGAUAUCGGCUGAAACAGCGUACGAGAAGGAAGUACAUGAGGAUCACCCAUGUGUCCCGUGCU [Teentibi] (Eterna round: R97, puzzle: Exclusion 6) = false
• AUCAGCUCGUGAGGAUAUACAUGAGGAUCACCCAUGUGAUCAAUAGCAGCUUCGGCUGCAUUAAUGUAGAAGGUACGAGCUGAU [ENG2/5-C3] (Eterna round: R96, puzzle: Exclusion NG 2) = false
• UAUUUAGCAAGCAGAUCCUACAUGAGGAUCACCCAUGUGCUCUGAACGUACAGAAUUACUGUACGAGCUCGUCUUAU [Winner reversed engineered 29] (Eterna round: R97, puzzle: Sensor, turn-off variant 1) = false

Data request: Threshold query (apparent KD of MS2 coat protein >= 200 nM) on UCUAUGAUGCGAGGAUAUCGACCAUUCCUCUUUACAUGAGGAUCACCCAUGUUCGUACGCUACAACGAGAAGGCGCACUAAGUU [JR_ExcNG2_Sub060] (Eterna round: R96, puzzle: Exclusion NG 2)
Data returned: true

Data request: One more sequence: ACAUGACUGCUAGGAUAUAGAUGACAUGAGGAUCACCCAUGUUAUCCCAUGUUGACGGAAACCGACUAGAAGGAGCAACAUAUG [Ex NG2 #8] (Eterna round: R96, puzzle: Exclusion NG 2)
Data returned: false

* * *

As shown below, each of these sequences has a reported apparent KD of MS2 coat protein value.
# System: MS2 coat protein
# protocol-notes: apparent KD of MS2 coat protein, switch ON state; designed switch direction (-1 OFF switch, 1 ON switch): 1; higher = weaker reporter binding
# experimental-conditions: FMN input: 0 or 200 uM; Eterna round: R93 (includes R88 designs)
Could you give me the number in nM? Just the number is fine.

• AAUAUACAUGAGGAUCACCCAUGUUUUAAUAGCUGAGGAUAUACGGGUGAAAACAGCAUAGUAGAAGGCGGGUGUA [SameState1 Malc#8] = 99.6
• GGCUGCAAUUAUGAGGAUAUGUUCGGAUGAACAUGAGGAUCACCCAUGUGGCGAUAGCUAUCUGUGCAGAAGGUGUAGUGGUAGC [Edlexete] = 38.8
• GUGUAAAGAAUCGAGGAUAUCCAAAAAAGCACAUGAGGAUCACCCAUGUAAGAGAGAGAAUAAUGGGAGAAGGCGAGUUAUCGGU [JR_SS002_Sub1712] = 18.1
• UGGAGACAUGAGGAUCACCCAUGUGAGAAGAGGCGAGGAUAUCGAAAAAAAAAAAAAAAACGAGAAGGCGCGAGAA [salish99-SS1-007] = 28.9
• GAGAUACAUGAGGAUCACCCAUGUUGAUACAUGGGAGGAUAUACAAGGUCGAAAGAUAAGGUAGAAGGCCUAAAAG [LROPPY Same State 1 - v04_deltaG=3.5] = 47.1

Turning to the following sequence.
Data request: Any idea what its apparent KD of MS2 coat protein is? The sequence is AAUAAACAUGAGGAUCACCCAUGUAGAAAUAUGGGAGGAUAUACAAAGACGAAAGUCAAAGUAGAAGGCCUAAUAA [Mat - Same State 1 - Mod - D153]
Data returned: 18

* * *

# Tested on: K4 kissing-loop RNA reporter
# protocol-notes: apparent KD of K4 kissing-loop reporter; higher = weaker reporter binding
# experimental-conditions: Eterna round: R107; input ligand: FMN 200 uM
Item-by-item account of apparent KD of K4 kissing-loop reporter
Your answer is read as nM, so omit the unit and give the number.

Worked cases, answers included:
• UGUAUGUGAUUUGAUACCAGACCAGCUGAUGGAUCACGAGUGAUGUUCGUGUUGGUUUGGGUCCCUUGGCAGCAAAUCGCAUACU [KL-SSTheoB14] = 308
• CCAUUCUUUUACGAUACCAGUUUAAUAUAUUUAUUCAUAACCCUUGCCGAGUGAUGUUCGGACCCUUGGCAGCGUUUGCGAGAGG [lliltkmullin] = 303

Data request: I would be grateful if you could share the reported apparent KD of K4 kissing-loop reporter for AGACUACCACACUGUCAAUAGACAGUGAGCUAGGAUAUGCUGAUAAGCAGAAGGAGUGAUGUUCCAAGGUAGUCAAUAAAAUAAU [FmnAX 13 G29+A66] .
Data returned: 209

* * *

# System: K4 kissing-loop RNA reporter;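 note: bound reporter read as fluorescence of individual clusters on recovered sequencing chips by microscopy, with normalized cluster intensities fitted with a binding model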
# protocol-notes: apparent KD of K4 kissing-loop reporter; higher = weaker reporter binding
# experimental-conditions: Eterna round: R107; input ligand: none
property: apparent KD of K4 kissing-loop reporter (nM)
Write down the numeric answer in nM and omit the unit.

Recorded results for 2 sequences are shown here.
- UAACUCUUGCAGUGAUGUUGCAAGUAAGCUCAGGAUAUCAGGAAACUGAGAAGGGAGUAUCCUGAGCUUCUGCAAGAGCUCAGAA [KL-SSFMN-A5]: 362
- ACGUCCGGAUUGAUCGUGGGCAUGGUCGAUACCAGUAGUUUAAUCUACCCUUGGCAGCGACAUGAGUGAUGUUCAUGUGCGAUGA [KL-XTheo-A7 #analogue]: 173

The record that follows has no apparent KD of K4 kissing-loop reporter shown yet.
Data request: Fill in: apparent KD of K4 kissing-loop reporter of AGUGAAGUUAGUGAUGUGUGAGUUUGGGAAGGAGCGCCGAGAACGGCAGGUAGGUCGCCCAGUGAUGUUGGUGUAAAGAUGAGAG [whbob_Ex_Arginine_A_2t121] is ___
Data returned: 239

* * *

# System: MS2 coat protein
# protocol-notes: apparent KD of MS2 coat protein; designed switch direction (-1 OFF switch, 1 ON switch): -1; higher = weaker reporter binding
# experimental-conditions: input ligand: FMN 200 uM
property: apparent KD of MS2 coat protein

• GGUAUACAUGAGGAUCACCCAUGUCAGGAUAUGUAUGCAUAUGCCGAAAGGCAUAUGCUCAGAAGGGACUAUAU [AK-MS2ROC-r4-exclusion1-4.0] (Eterna round: R97, puzzle: Exclusion 1) = 42.4 nM
• UUCACAUGGACAUAAGAUCACAUGAGGAUCACCCAUGUGAAUAACAAGCUUUUUGUUCGUCUUAUGUCCAAUAAUAU [Stov1/14-B3] (Eterna round: R97, puzzle: Sensor, turn-off variant 1) = 13.9 nM

Could you now look at the following sequence, please?
Data request: Given the entry UGUCUUCAUAUCACAUGAGGAUCACCCAUGUUAUUCAUCUCGUAGGAUAUCGAGGUUUAUUAUUUCGAGAAGGACGUAUUGUUU [JR_ExcNG3_Sub076] (Eterna round: R96, puzzle: Exclusion NG 3) , report its measured apparent KD of MS2 coat protein.
Data returned: 199 nM
